Each record here notes measured GI50.
System: SF-268
PROCEDURE_DETAILS: NCI tumour cell line growth inhibition, 48 h
The source made the active and inactive calls. Cut-off read from the data, not from the text of the source: active = GI50 up to about 1.1 µM and inactive = higher.

input: Data request, read-out GI50, for CCOC(=O)C(=O)Nc1ccc([N+](=O)[O-])cc1C#N
output: > 100 µM (inactive)

* * *

Tested on: U-251
PROCEDURE_DETAILS: NCI tumour cell line growth inhibition, 48 h
Activity calls are given as the source filed them. No stated cut-off is given here; in the data, active = GI50 up to about 1.1 µM and inactive = higher.
Response enum: y for active, n for inactive

// known answers, use as guide
COMPOUND	ASSIGNED_CATEGORY
COc1ccc(/C=C2\NC(=S)N(/C=C3\C(=O)Oc4ccccc4C3=O)C2=O)cc1OC	n
COc1ccc(/C=C/c2cnc3ccccc3n2)cc1OC	n
Cc1c[nH]c(C(=O)O)c1-c1cccn1-c1ccc(Cl)cc1[N+](=O)[O-]	n
Cc1ccc(/N=N/c2ccc(N(CCC#N)CCC#N)cc2C)c(Br)c1	n
N#Cc1c(-c2ccc(Cl)cc2)c(C#N)c(=O)n(NS(=O)(=O)c2ccccc2)c1O	n

input: Which result was noted for this compound in the test: C=CC1=C(C)c2cc3[nH]c(c4c5nc(cc6[nH]c(cc1n2)c(C=O)c6CC)C(C)=C5C(=O)[C@@H]4C(=O)OC)[C@@H](CCC(=O)O)[C@@H]3C
output: n

input: Test call, this compound: Clc1cc(Cl)cc(C2SCc3nc4ccccc4n32)c1 (stereo not given)
output: n

input: What classification did CCNC(=S)N/N=C/c1ccccn1 end up with in this test?
output: n

input: What classification did Cc1ccc2[nH]c3c4c5ccccc5nc-4c[nH]c3c2c1 end up with in this test?
output: n

input: // return assay outcome for CCSC1=N/C(=C\c2ccco2)C(Cl)=N1
output: n

input: // param item: Cc1ccc(C2(O)c3ccccc3C(=O)N(C)C2(O)c2ccc(C)cc2)cc1 (stereo not given) ; yields the recorded call
output: n

input: Recorded call for O=C1CCCCC/C1=C\c1cccc(Cl)c1 ?
output: n

* * *

System: NCI-H522
PROCEDURE_DETAILS: NCI tumour cell line growth inhibition, 48 h
Calls of active or inactive are those of the source. No stated cut-off is given here; in the data, active = GI50 up to about 1.1 µM and inactive = higher.
Returns: one label drawn from active, inactive

Worked cases, answers included:
COMPOUND	ASSIGNED_CATEGORY
COc1cc(S(=O)(=O)Nc2ccc(-c3csc(N4C(=O)C(Cl)C4c4ccccc4O)n3)cc2)ccc1Cl (stereo not given)	inactive
Cc1cccc(N2C(=O)/C(=C/c3ccc(N(CCC#N)CCC#N)cc3C)N=C2c2cc([N+](=O)[O-])ccc2Cl)c1	inactive
CCCCCCCCCc1c(O)c(O)c(CCCCCCCCC)c(CCCCCCCCC)c1CCCCCCCCC	inactive
COc1ccc(/C=C2\Sc3nnc(-c4ccccc4)n3N=C2c2cc(F)c(Cl)cc2Cl)cc1OC	inactive
COc1ccc(/C=C2\NC(=S)N(/C=C3\C(=O)Oc4ccccc4C3=O)C2=O)cc1OC	inactive

input: // outcome(item) with item = FC(F)(F)c1ccc(/N=N/N2CCCC2)cc1
output: inactive

input: Outcome logged for O=C(NC1CCCCC1)NC12CC3CC(CC(F)(C3)C1)C2 in this assay:
output: inactive

input: Per the records of this test, what outcome belongs to O=C(N/C(=C\c1ccc(Oc2ccc(Cl)c(Cl)c2)cc1)c1nc2ccccc2[nH]1)c1ccccc1 ?
output: inactive

input: For this compound, state the assay outcome: CCN(CC)CCn1nc2c3c(c(NCCN)ccc31)Sc1cc(O)ccc1-2
output: active

input: Kindly provide the recorded test outcome for the following compound: Clc1cc(Cl)cc(C2SCc3nc4ccccc4n32)c1 (stereo not given)
output: inactive

* * *

Tested on: HCC 2998
PROCEDURE_DETAILS: NCI tumour cell line growth inhibition, 48 h
The source made the active and inactive calls. Rule as the data show it: active = GI50 up to about 1.1 µM and inactive = higher.
Reported values of GI50 for individual entries

COMPOUND	GI50
CC1COS(=O)O1 (stereo unspecified)	> 100 µM (inactive)
Cc1ccc(/N=N/c2ccc(N(CCC#N)CCC#N)cc2C)c(Br)c1	5.28 µM (inactive)
Cc1c[nH]c(C(=O)O)c1-c1cccn1-c1ccc(Cl)cc1[N+](=O)[O-]	> 100 µM (inactive)
CS/C(=N\C#N)S/C=C/C(=O)c1ccc(Cl)cc1	42.4 µM (inactive)
Cc1oc2c(Cl)cc(O)c(Cl)c2c2cccc1-2	> 100 µM (inactive)

Moving on to another compound below.
input: Entry under review: O=C(NCCCNCCCCNCCCNC(=O)C(F)(F)F)C(F)(F)F . Reported GI50?
output: 76.4 µM (inactive)

* * *

Test system: SK-MEL-2
PROCEDURE_DETAILS: NCI tumour cell line growth inhibition, 48 h
The source made the active and inactive calls. Rule as the data show it: active = GI50 up to about 1.1 µM and inactive = higher.
READOUT_KIND: GI50

input: Return reported GI50; argument: COc1ccc(/C=C/c2cnc3ccccc3n2)cc1OC
output: 92.7 µM (inactive)

input: Quick one: GI50 for Cc1ccc(S(=O)(=O)N/N=C2/C3C(CC2(C)C)C2(C)CCCC3(C)C2O)cc1 (stereo unspecified) ?
output: 21 µM (inactive)

input: # GI50 lookup, item Cc1ccc(C(=O)C(C)N)cc1 (stereo unspecified)
output: > 100 µM (inactive)

input: Any idea what GI50 was measured for CC(=N/NC(=S)N1CCCCC1)/C(=N\NC(=S)N1CCCCC1)c1ccccc1 ?
output: 2.11 µM (inactive)

input: Could you tell me which GI50 is on file for Cc1cccc(N2C(=O)/C(=C/c3ccc(N(CCC#N)CCC#N)cc3C)N=C2c2cc([N+](=O)[O-])ccc2Cl)c1 ?
output: > 100 µM (inactive)

input: Find the recorded GI50 belonging to CSc1nc(NC2OC(COC(C)=O)C(OC(C)=O)C(OC(C)=O)C2OC(C)=O)c(/N=C(\C)C(C)=O)c(=O)n1C (stereo unspecified) and report it.
output: > 100 µM (inactive)

* * *

compounds and their reported GI50
Tested on: NCI-H226
PROCEDURE_DETAILS: NCI tumour cell line growth inhibition, 48 h
Calls of active or inactive are those of the source. Rule as the data show it: active = GI50 up to about 1.1 µM and inactive = higher.

input: State the recorded GI50 for this entry: O=C1/C(=C/c2ccc([N+](=O)[O-])cc2)Sc2scc(-c3cccc([N+](=O)[O-])c3)[n+]21
output: 11.5 µM (inactive)

input: Query: GI50; subject: O=Cc1cc(O)ccc1Br
output: 28.8 µM (inactive)

input: Requested read-out: GI50. Entry: COC(=O)/C=C\COCC1C2CCC(=O)C21 (stereo not given)
output: 18.5 µM (inactive)

* * *

Test system: UACC-257
PROCEDURE_DETAILS: NCI tumour cell line growth inhibition, 48 h
Activity calls are given as the source filed them. Rule as the data show it: active = GI50 up to about 1.1 µM and inactive = higher.
READOUT_KIND: GI50

input: Please tell me: GI50 of CCCNC(=S)N/N=C/c1cccc(C)n1 , system UACC-257?
output: 33 µM (inactive)

input: Notebook entry, UACC-257 assay: GI50 of COC1OC2COC1(OC)C1OC(C)(C)OC21 (stereo unspecified) = ?
output: > 100 µM (inactive)

input: Please tell me: GI50 of COc1ccc(CC2COc3cc(O)cc(O)c3C2=O)cc1O (stereo unspecified) , system UACC-257?
output: > 100 µM (inactive)

input: Entry COC(=O)C(C(=O)C(=O)Nc1ccc(C)cc1C)c1nc2ccc([N+](=O)[O-])cc2nc1O (stereo unspecified) , system UACC-257: what GI50 was measured?
output: > 100 µM (inactive)

input: Kindly state the measured GI50 obtained for Cc1ccc(/N=N/c2ccc(N(CCC#N)CCC#N)cc2C)c(Br)c1 with UACC-257.
output: 26 µM (inactive)

input: Which measured GI50 belongs to CCCCCCCCCc1c(O)c(O)c(CCCCCCCCC)c(CCCCCCCCC)c1CCCCCCCCC , tested on UACC-257?
output: > 100 µM (inactive)

* * *

System: UACC-62
PROCEDURE_DETAILS: NCI tumour cell line growth inhibition, 48 h
Calls of active or inactive are those of the source. Rule as the data show it: active = GI50 up to about 1.1 µM and inactive = higher.
Could you please pick one outcome from this set? 1 for active, -1 for inactive

COMPOUND	EXPERIMENTAL_TARGET	ASSIGNED_CATEGORY
CCc1nc2c(n1CC)C(=O)c1ccccc1C2=O	UACC-62	-1
CCC(CC)n1c(C)nc2c1C(=O)c1ccccc1C2=O	UACC-62	-1

input: For CCCOc1ccc(/C=C/c2cc(OC)c(OC)c(OC)c2)cc1 , which call appears in the assay record?
output: 1

input: Identify the outcome logged in this assay for the compound shown: C/C(=N/OC(=O)c1cccc2c(=O)c3ccccc3[nH]c12)[C@H]1CC[C@H]2[C@@H]3CCC4=C/C(=N/OC(=O)c5cccc6c(=O)c7ccccc7[nH]c56)CC[C@]4(C)[C@H]3CC[C@]12C
output: -1

input: Please let me know the test result on file for CCOC(=O)c1sc2c(c1O)c(=O)n(-c1ccccc1)c(=S)n2-c1ccccc1 .
output: -1

input: For CC12C3C4C1C1C2C3C41CO (configuration not stated) , which call appears in the assay record?
output: -1

input: Dear colleague, could you share the recorded outcome for Cc1ccc(/C=N/Nc2ccccn2)s1 when you have a moment?
output: -1

input: Hi team, can someone confirm the assay call for O=C1Nc2c(Cl)cc(Cl)cc2/C1=N/NC(=O)c1ccccc1O ?
output: -1
